biological target: CDK2-NanoLuc fusion with CCNE1 in 293T or 293 cells (Homo sapiens); construct: host or cells: 293T (ATCC CRL-3216) or 293 (ATCC CRL-1573); assay: NanoBRET Target Engagement (TE) Intracellular Kinase Assay, CDK2/CCNE1; type: cell-based; details: NanoBRET TE intracellular kinase assay, 2-hour incubation, read-out: NanoBRET-CDK2/E1 IC50
pIC50: −log10 of the molar value.
recordedEndpoint: pIC50

[A] CC(C)NC(=O)O[C@@H]1CC[C@H](c2cc(NC(=O)c3ccc(C=O)c4[nH]ncc34)n[nH]2)C1
[B] COc1cc(O)c(C=O)c(OCC(=O)Nc2cc([C@H]3CC[C@@H](OC(=O)N[C@@H](C)CC(F)(F)F)C3)[nH]n2)c1
[C] COc1cc(O)c(C=O)c2c1CC(C(=O)Nc1cc([C@H]3CC[C@@H](OC(=O)N4CCCN4C)C3)[nH]n1)C2 (single isomer, unassigned) [Compound 263]
Task item: Output the entries ranked by pIC50 from maximum down to minimum. Respond with the label ranking, as requested.
Reply: B, A, C

###

target: CDK4-NanoLuc fusion with CCND1 in 293T or 293 cells (Homo sapiens, UniProt P11802); construct: host or cells: 293T (ATCC CRL-3216) or 293 (ATCC CRL-1573); experiment: NanoBRET Target Engagement (TE) Intracellular Kinase Assay, CDK4/CCND1; format: cell-based; details: NanoBRET TE intracellular kinase assay, 2-hour incubation, read-out: NanoBRET-CDK4/D1 IC50
Sequence (P11802 whole entry, the tested form may be a part): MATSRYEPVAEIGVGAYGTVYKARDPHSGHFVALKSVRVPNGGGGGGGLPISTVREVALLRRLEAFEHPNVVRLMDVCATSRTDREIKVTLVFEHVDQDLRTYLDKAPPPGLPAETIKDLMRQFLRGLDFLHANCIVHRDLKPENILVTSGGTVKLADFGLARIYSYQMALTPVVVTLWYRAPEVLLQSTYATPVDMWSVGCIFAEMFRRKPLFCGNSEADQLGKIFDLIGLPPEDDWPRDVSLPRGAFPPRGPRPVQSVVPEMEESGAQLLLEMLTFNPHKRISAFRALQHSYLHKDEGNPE
Sequence (P24385 whole entry partner, the tested form may be a part): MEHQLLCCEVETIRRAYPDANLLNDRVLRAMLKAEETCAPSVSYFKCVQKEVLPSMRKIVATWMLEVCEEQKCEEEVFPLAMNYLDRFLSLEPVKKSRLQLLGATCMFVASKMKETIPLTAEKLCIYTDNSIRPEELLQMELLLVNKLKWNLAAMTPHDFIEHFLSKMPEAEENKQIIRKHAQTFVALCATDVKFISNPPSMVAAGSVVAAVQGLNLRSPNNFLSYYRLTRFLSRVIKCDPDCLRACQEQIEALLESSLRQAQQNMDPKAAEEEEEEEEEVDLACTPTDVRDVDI
pIC50: −log10 of the molar value.
recordedEndpoint: pIC50

Form: molecule = "COc1cc(O)c(C=O)c(OCC(=O)Nc2cc([C@H]3CC[C@@H](OC(=O)N4[C@@H]5CC[C@H]4C[C@H](C#N)C5)C3)[nH]n2)c1" ; pIC50 = 5.68

The reported value for "COc1cc(O)c(C=O)c(OCC(=O)Nc2cc([C@H]3CC[C@@H](OC(=O)NC4(CC#N)CC4)C3)[nH]n2)c1" in terms of pIC50 is 5.62

GET /value?item= "Cc1nc(-c2cccc(O)c2C=O)sc1C(=O)Nc1cc([C@H]2CC[C@@H](OC(=O)NC(C)C)C2)[nH]n1" &field=pIC50 returns 5.44

[A] CC(C)(C)NC(=O)O[C@@H]1CC[C@H](c2cc(NC(=O)COc3cccc(O)c3C=O)n[nH]2)C1
[B] COc1cc(O)c(C=O)c(OCC(=O)Nc2cc([C@H]3CC[C@@H](OC(=O)N4CC[C@@H](F)C4)C3)[nH]n2)c1
Task item: Could you tell me which of these two has the smaller pIC50 figure? First: A Second: B Please indicate the selected item by its label.
Reply: A

[A] CC(C)NC(=O)O[C@@H]1CC[C@H](c2cc(NC(=O)COCc3cccc(O)c3C=O)n[nH]2)C1
[B] COc1cc(O)c(C=O)c(OCC(=O)Nc2cc([C@H]3CC[C@@H](OC(=O)NC4(C)CCC4)C3)[nH]n2)c1
Task item: Of A and B , which shows the smaller pIC50 value? Give the label under which the chosen entry appears.
Reply: A

[I] CC(C)NC(=O)O[C@@H]1CC[C@H](c2cc(NC(=O)c3cc(C=O)c4[nH]ncc4c3)n[nH]2)C1
[II] C#C[C@H](C)NC(=O)O[C@@H]1CC[C@H](c2cc(NC(=O)COc3cc(OC)cc(O)c3C=O)n[nH]2)C1
Task item: I'm curious, which of these has a smaller pIC50 number: I or II ? Could you answer with the label of the item you picked?
Reply: II

###

test system: Phospho-Rb Ser807/811 in OVCAR3 cells; test: OVCAR3 Phospho-Rb Ser807/811 HTRF assay; assay type: cell-based; conditions: Homo sapiens, OVCAR-3, 1 h, OVCAR3 cells, Phospho-Rb Ser807/811 HTRF, 1 hour incubation; read-out: pRb-OVCAR3 IC50
recordedEndpoint: IC50 (nM)

[I] CC(C)NC(=O)O[C@@H]1CC[C@H](c2cc(NC(=O)c3cc(-c4cccc(C=O)c4O)nn3C)n[nH]2)C1
[II] COc1cc(O)c(C=O)c(OCC(=O)Nc2cc([C@H]3CC[C@@H](OC(=O)N4CCCC45CC5)C3)[nH]n2)c1
Task item: So which one has the bigger IC50 here, I or II ? Please indicate the selected item by its label.
Reply: I
(I: 4640 nM, II: 40.2 nM)

[P] CC(C)NC(=O)O[C@@H]1CC[C@H](c2cc(NC(=O)c3cc(-c4ccc(O)c(C=O)c4)nn3C)n[nH]2)C1
[Q] COc1cc(O)c(C=O)c(OCC(=O)Nc2cc([C@@H]3CCC(OC(=O)N4CCCC4)C3)[nH]n2)c1 (stereo partly shown)
[R] COc1cc(O)c(C=O)c(OCC(=O)Nc2cc([C@H]3CC[C@@H](OC(=O)N4CC[C@H](F)C4)C3)[nH]n2)c1
[S] CC1(NC(=O)O[C@@H]2CC[C@H](c3cc(NC(=O)COc4cccc(O)c4C=O)n[nH]3)C2)CC1
Task item: Provide the items ranked by increasing IC50. # the answer lists labels in the order requested
Reply: R, S, Q, P
(R: 22.1 nM, S: 43.2 nM, Q: 77.6 nM, P: 214 nM)

###

target: CDK4-NanoLuc fusion with CCND1 in 293T or 293 cells (Homo sapiens); construct: host or cells: 293T (ATCC CRL-3216) or 293 (ATCC CRL-1573); test: NanoBRET Target Engagement (TE) Intracellular Kinase Assay, CDK4/CCND1; type: cell-based; settings: NanoBRET TE intracellular kinase assay, 2-hour incubation, read-out: NanoBRET-CDK4/D1 IC50
recordedEndpoint: IC50 (µM)

Worked set:
Kindly note the recorded IC50 for COc1cc(OC)c(C=O)c(OCC(=O)Nc2cc([C@H]3CC[C@@H](OC(=O)NC(C)C)C3)[nH]n2)c1 [Compound 103] , which is 3.79

Given item O=Cc1c(O)cc(OC(F)F)cc1OCC(=O)Nc1cc([C@H]2CC[C@@H](OC(=O)N3C4COCC3C4)C2)[nH]n1 [Compound 186] , the value recorded as its IC50 is 6.58

Measured IC50, CCC[C@H](C)NC(=O)O[C@@H]1CC[C@H](c2cc(NC(=O)COc3cc(OC)cc(O)c3C=O)n[nH]2)C1 [Compound 168] : 3.27

// CC(C)NC(=O)O[C@@H]1CC[C@H](c2cc(NC(=O)[C@H]3C[C@H](c4cccc(O)c4C=O)C3)n[nH]2)C1 [Compound 107] : IC50 value = 0.224

For this compound ( COc1cc(O)c(C=O)c(OCC(=O)Nc2cc([C@H]3CC[C@@H](OC(=O)NC(C)(C)C#N)C3)[nH]n2)c1 [Compound 159] ), measured IC50 is 4.84

[1] COc1cc(O)c(C=O)c2c1CC(C(=O)Nc1cc([C@H]3CC[C@@H](OC(=O)N4CCCN4C)C3)[nH]n1)C2 (single isomer, unassigned) [Compound 262]
[2] CC(C)NC(=O)O[C@@H]1CC[C@H](c2cc(NC(=O)C3CCN(c4cccc(O)c4C=O)C3)n[nH]2)C1 (stereo partly shown) [Compound 93]
Task item: Which value of IC50 is greater, the one for 1 or the one for 2 ? Give the label under which the chosen entry appears.
Reply: 1

###

tested on: Phospho-Rb Ser807/811 in OVCAR3 cells; experiment: OVCAR3 Phospho-Rb Ser807/811 HTRF assay; type: cell-based; conditions: Homo sapiens, OVCAR-3, 1 h, OVCAR3 cells, Phospho-Rb Ser807/811 HTRF, 1 hour incubation; read-out: pRb-OVCAR3 IC50
recordedEndpoint: IC50 (nM)

# annotated cases, reported IC50 shown
Record CC(C)NC(=O)O[C@@H]1CC[C@H](c2cc(NC(=O)C3Cc4ccc(O)c(C=O)c4O3)n[nH]2)C1 (stereo partly shown) , field IC50: 1870

Summary for this compound, "C#CC1(NC(=O)O[C@@H]2CC[C@H](c3cc(NC(=O)COc4cc(OC)cc(O)c4C=O)n[nH]3)C2)CC1" : IC50 is 18.2

So, "COc1cc(O)c(C=O)c(OCC(=O)Nc2cc([C@H]3C[C@@H](OC(=O)NC(C)C)C3)[nH]n2)c1" ? Its IC50 was 61.6

The measured IC50 associated with "CC(C)NC(=O)O[C@@H]1CC[C@H](c2cc(NC(=O)c3cc(C#Cc4cccc(O)c4C=O)nn3C)n[nH]2)C1" reads 2150

IC50 reported for this compound "O=Cc1c(O)cccc1OCC(=O)Nc1cc([C@H]2CC[C@@H](OC(=O)N3CCCC3)C2)[nH]n1" : 177

[a] CC(C)NC(=O)O[C@@H]1CC[C@H](c2cc(Nc3cc(Oc4cccc(O)c4C=O)ccn3)n[nH]2)C1
[b] CC(C)NC(=O)O[C@@H]1CC[C@H](c2cc(NC(=O)COc3cccc(-c4nccs4)c3C=O)n[nH]2)C1
Task item: I need your help: which of the pair a , b has higher IC50? Provide the label of your selected option as the answer.
Reply: b
